Cited source: paper PMC4971072

- testedSystem: α1B-adrenoceptors (Mus musculus)
- Construct: The spleen was removed from male mice; from tissue; host or cells: isolated mouse spleen
- Sequence (P97717 whole entry): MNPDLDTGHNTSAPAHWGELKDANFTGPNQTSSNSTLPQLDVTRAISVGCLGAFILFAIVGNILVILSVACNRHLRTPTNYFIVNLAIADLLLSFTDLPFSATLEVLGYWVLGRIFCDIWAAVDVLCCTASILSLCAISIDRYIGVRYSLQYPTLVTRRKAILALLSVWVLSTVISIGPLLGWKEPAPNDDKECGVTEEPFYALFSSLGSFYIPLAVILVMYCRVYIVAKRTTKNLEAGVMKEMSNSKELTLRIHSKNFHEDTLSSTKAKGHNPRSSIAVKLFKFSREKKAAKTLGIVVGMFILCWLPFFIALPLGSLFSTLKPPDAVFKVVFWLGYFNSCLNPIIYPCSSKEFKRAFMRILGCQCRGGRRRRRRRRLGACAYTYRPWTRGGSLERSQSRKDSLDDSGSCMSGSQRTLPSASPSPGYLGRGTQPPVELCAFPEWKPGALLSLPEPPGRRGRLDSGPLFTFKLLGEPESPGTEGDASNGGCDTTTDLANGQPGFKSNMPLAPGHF
- assayName: Functional bioassay, isolated mouse spleen, noradrenaline contraction
- Assay type: biochemical
- conditionNotes: noradrenaline as agonist, read-out: pA2 ± S.E.M., α1B (converted)
Kindly supply the reported Kb values for the records listed here.
Entry rule: numbers only, all in nM.

Entry `COc1ccccc1N1CCN(CCOCCOc2c(C)cccc2C)CC1.Cl` has what Kb? 20

Entry `COc1ccccc1N1CCN(CCCOc2cc(C)cc(C)c2C)CC1` has what Kb? 8.51

Entry `COc1ccccc1N1CCN(CCCOc2c(C)cc(C)cc2C)CC1` has what Kb? 4.47

Entry `COc1ccccc1N1CCN(CCCOc2cc(C)ccc2Cl)CC1` has what Kb? 6.17

Entry `COc1ccccc1N1CCN(CCOCCOc2c(C)cccc2Cl)CC1.Cl` has what Kb? 21.4

---

- Tested on: normal ECG in rats
- assayName: The effect on normal electrocardiogram in rats
- Format: in vivo, rat
- conditionNotes: anesthetized rats, i.p. at ED84; 60 min
measuredEndpoint: QRS (ECG) (ms)
Entry rule: numbers only, all in ms.

Entry `COc1ccccc1N1CCN(CCCOc2c(C)cc(C)cc2C)CC1` has what QRS (ECG)? 30.9

Entry `COc1ccccc1N1CCN(CCOCCOc2c(C)cccc2C)CC1.Cl` has what QRS (ECG)? 27.5

Entry `COc1ccccc1N1CCN(CCOCCOc2c(C)cccc2Cl)CC1.Cl` has what QRS (ECG)? 26.3

Entry `COc1ccccc1N1CCN(CCCOc2cc(C)ccc2Cl)CC1` has what QRS (ECG)? 22.3

Entry `COc1ccccc1N1CCN(CCCOc2cc(C)cc(C)c2C)CC1` has what QRS (ECG)? 30.3

---

- Tested on: normal ECG in rats
- assayName: The effect on normal electrocardiogram in rats
- Format: in vivo, rat
- conditionNotes: anesthetized rats, i.p. at ED84; 40 min
measuredEndpoint: PQ (ECG) (ms)
Entry rule: numbers only, all in ms.

Entry `COc1ccccc1N1CCN(CCOCCOc2c(C)cccc2Cl)CC1.Cl` has what PQ (ECG)? 46.1

Entry `COc1ccccc1N1CCN(CCOCCOc2c(C)cccc2C)CC1.Cl` has what PQ (ECG)? 48.2

Entry `COc1ccccc1N1CCN(CCCOc2cc(C)cc(C)c2C)CC1` has what PQ (ECG)? 59.3

Entry `COc1ccccc1N1CCN(CCCOc2cc(C)ccc2Cl)CC1` has what PQ (ECG)? 65.9

Entry `COc1ccccc1N1CCN(CCCOc2c(C)cc(C)cc2C)CC1` has what PQ (ECG)? 57.4

---

- Tested on: normal ECG in rats
- assayName: The effect on normal electrocardiogram in rats
- Type: in vivo, rat
- conditionNotes: anesthetized rats, i.p. at ED84; 20 min
measuredEndpoint: QRS (ECG) (ms)
Entry rule: numbers only, all in ms.

Entry COc1ccccc1N1CCN(CCCOc2cc(C)ccc2Cl)CC1 [HBK-16] has what QRS (ECG)? 21.7

Entry COc1ccccc1N1CCN(CCOCCOc2c(C)cccc2Cl)CC1.Cl [HBK-15] has what QRS (ECG)? 26.3

Entry COc1ccccc1N1CCN(CCOCCOc2c(C)cccc2C)CC1.Cl [HBK-14] has what QRS (ECG)? 26.3

Entry COc1ccccc1N1CCN(CCCOc2cc(C)cc(C)c2C)CC1 [HBK-19] has what QRS (ECG)? 32.7

Entry COc1ccccc1N1CCN(CCCOc2c(C)cc(C)cc2C)CC1 [HBK-18] has what QRS (ECG)? 29.1

---

- Test system: normal ECG in rats
- assayName: The effect on normal electrocardiogram in rats
- Assay type: in vivo, rat
- conditionNotes: anesthetized rats, i.p. at ED84; 60 min
Kindly supply the reported QTc (ECG, Bazett) values for the records listed here.
Entry rule: numbers only, all in ms.

Entry `COc1ccccc1N1CCN(CCCOc2cc(C)cc(C)c2C)CC1` has what QTc (ECG, Bazett)? 206.3

Entry `COc1ccccc1N1CCN(CCCOc2cc(C)ccc2Cl)CC1` has what QTc (ECG, Bazett)? 122.0

Entry `COc1ccccc1N1CCN(CCOCCOc2c(C)cccc2Cl)CC1.Cl` has what QTc (ECG, Bazett)? 213.9

Entry `COc1ccccc1N1CCN(CCCOc2c(C)cc(C)cc2C)CC1` has what QTc (ECG, Bazett)? 157.1

Entry `COc1ccccc1N1CCN(CCOCCOc2c(C)cccc2C)CC1.Cl` has what QTc (ECG, Bazett)? 214.1

---

- Tested on: normal ECG in rats
- assayName: The effect on normal electrocardiogram in rats
- Type: in vivo, rat
- conditionNotes: anesthetized rats, i.p. at ED84; 50 min
measuredEndpoint: PQ (ECG) (ms)
Entry rule: numbers only, all in ms.

Entry `COc1ccccc1N1CCN(CCCOc2cc(C)ccc2Cl)CC1` has what PQ (ECG)? 67.3

Entry `COc1ccccc1N1CCN(CCOCCOc2c(C)cccc2Cl)CC1.Cl` has what PQ (ECG)? 47.5

Entry `COc1ccccc1N1CCN(CCOCCOc2c(C)cccc2C)CC1.Cl` has what PQ (ECG)? 47.3

Entry `COc1ccccc1N1CCN(CCCOc2c(C)cc(C)cc2C)CC1` has what PQ (ECG)? 59.0

Entry `COc1ccccc1N1CCN(CCCOc2cc(C)cc(C)c2C)CC1` has what PQ (ECG)? 55.1

---

Kindly supply the reported QTc (ECG, Bazett) values for the records listed here.
- System: normal ECG in rats
- assayName: The effect on normal electrocardiogram in rats
- Format: in vivo, rat
- conditionNotes: anesthetized rats, i.p. at ED84; 0 min (initial values)
Entry rule: numbers only, all in ms.

Give recorded QTc (ECG, Bazett) with normal ECG in rats for the following compound: `COc1ccccc1N1CCN(CCOCCOc2c(C)cccc2C)CC1.Cl` 211.7

Give recorded QTc (ECG, Bazett) with normal ECG in rats for the following compound: `COc1ccccc1N1CCN(CCOCCOc2c(C)cccc2Cl)CC1.Cl` 212.0

Give recorded QTc (ECG, Bazett) with normal ECG in rats for the following compound: `COc1ccccc1N1CCN(CCCOc2cc(C)ccc2Cl)CC1` 120.5

Give recorded QTc (ECG, Bazett) with normal ECG in rats for the following compound: `COc1ccccc1N1CCN(CCCOc2cc(C)cc(C)c2C)CC1` 186.9

Give recorded QTc (ECG, Bazett) with normal ECG in rats for the following compound: `COc1ccccc1N1CCN(CCCOc2c(C)cc(C)cc2C)CC1` 172.4

---

- testedSystem: α1A-adrenoceptors (Rattus norvegicus)
- Construct: the middle part of the ventral caudal artery was removed; from tissue; host or cells: isolated rat tail (ventral caudal) artery rings
- Sequence (P43140 1-466): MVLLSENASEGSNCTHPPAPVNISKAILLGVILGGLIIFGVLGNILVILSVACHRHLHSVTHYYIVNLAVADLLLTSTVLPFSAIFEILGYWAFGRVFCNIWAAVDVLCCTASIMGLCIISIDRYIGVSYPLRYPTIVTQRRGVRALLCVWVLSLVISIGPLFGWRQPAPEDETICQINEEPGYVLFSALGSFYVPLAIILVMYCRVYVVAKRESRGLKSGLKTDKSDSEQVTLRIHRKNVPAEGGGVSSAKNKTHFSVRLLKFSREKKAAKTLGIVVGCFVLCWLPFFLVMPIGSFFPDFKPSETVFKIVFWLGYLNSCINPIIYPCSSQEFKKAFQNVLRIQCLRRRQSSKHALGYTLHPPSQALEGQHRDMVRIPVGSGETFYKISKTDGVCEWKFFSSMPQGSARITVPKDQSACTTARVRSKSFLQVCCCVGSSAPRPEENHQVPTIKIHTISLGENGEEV
- assayName: Functional bioassay, isolated rat tail artery, noradrenaline contraction
- Format: biochemical
- conditionNotes: noradrenaline as agonist
Criterion: Schild slope ± S.E.M., α1A meeting or surpassing 1. Met: met. Not met: not met.

Is reported Schild slope ± S.E.M., α1A greater than or equal to 1 here: `COc1ccccc1N1CCN(CCCOc2cc(C)cc(C)c2C)CC1` not met

Is reported Schild slope ± S.E.M., α1A greater than or equal to 1 here: `COc1ccccc1N1CCN(CCOCCOc2c(C)cccc2C)CC1.Cl` not met

Is reported Schild slope ± S.E.M., α1A greater than or equal to 1 here: `COc1ccccc1N1CCN(CCCOc2cc(C)ccc2Cl)CC1` met

Is reported Schild slope ± S.E.M., α1A greater than or equal to 1 here: `COc1ccccc1N1CCN(CCCOc2c(C)cc(C)cc2C)CC1` met

---

- Tested on: normal ECG in rats
- assayName: The effect on normal electrocardiogram in rats
- Format: in vivo, rat
- conditionNotes: anesthetized rats, i.p. at ED84; 30 min
measuredEndpoint: QRS (ECG) (ms)
Entry rule: numbers only, all in ms.

Entry `COc1ccccc1N1CCN(CCCOc2cc(C)cc(C)c2C)CC1` has what QRS (ECG)? 34.3

Entry `COc1ccccc1N1CCN(CCOCCOc2c(C)cccc2C)CC1.Cl` has what QRS (ECG)? 26.7

Entry `COc1ccccc1N1CCN(CCOCCOc2c(C)cccc2Cl)CC1.Cl` has what QRS (ECG)? 26.4

Entry `COc1ccccc1N1CCN(CCCOc2c(C)cc(C)cc2C)CC1` has what QRS (ECG)? 28.5

Entry `COc1ccccc1N1CCN(CCCOc2cc(C)ccc2Cl)CC1` has what QRS (ECG)? 21.7
